Every entry's value here was drawn from ChEMBL document CHEMBL3886557.

Biological target: Diacylglycerol O-acyltransferase 1 (Mus musculus, UniProt Q9Z2A7)
Sequence (Q9Z2A7 whole entry): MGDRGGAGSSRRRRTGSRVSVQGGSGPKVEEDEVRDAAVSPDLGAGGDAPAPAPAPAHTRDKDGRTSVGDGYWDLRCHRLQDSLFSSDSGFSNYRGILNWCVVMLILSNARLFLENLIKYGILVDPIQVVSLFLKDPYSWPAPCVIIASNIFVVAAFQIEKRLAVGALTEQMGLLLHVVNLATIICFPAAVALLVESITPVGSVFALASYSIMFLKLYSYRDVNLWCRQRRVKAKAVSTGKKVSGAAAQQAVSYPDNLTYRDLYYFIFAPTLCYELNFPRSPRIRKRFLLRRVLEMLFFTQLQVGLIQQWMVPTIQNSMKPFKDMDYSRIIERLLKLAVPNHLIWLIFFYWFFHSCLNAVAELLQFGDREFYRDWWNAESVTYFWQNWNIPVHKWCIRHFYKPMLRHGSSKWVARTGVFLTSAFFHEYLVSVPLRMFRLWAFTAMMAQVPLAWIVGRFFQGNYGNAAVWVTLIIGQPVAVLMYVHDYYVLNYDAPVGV
Test: Inhibition Assay: Â Assay buffer [20 mM HEPES (pH 7.4), 100 mM MgCl2 and 0.04% bovine serum albumin (BSA)] containing 500 uM of enzyme substrate (didecanoyl glycerol) and 7.5 uM radiolabeled acyl-CoA substrate ([14C]decanoyl-CoA) was added to each well of a phospholipid-coated radiometric assay plate.
test_readout: IC50

O=C(O)CC1CCC(c2ccc(-c3cn4cc(C(=O)Nc5ccc(F)c(Cl)c5)nc4s3)cc2)CC1 (stereo not given)
< 100 nM
O=C(O)C[C@H]1CC[C@H](c2ccc(-c3cn4cc(C(=O)Nc5cccc(Cl)c5)nc4s3)cc2)CC1
< 150 nM

Prompt line: Look up IC50 with Diacylglycerol O-acyltransferase 1 (Mus musculus, UniProt Q9Z2A7) for this compound: O=C(O)CC1CCC(c2ccc(-c3ccc4nc(C(=O)NCc5c(Cl)cccc5C(F)(F)F)cn4c3)cc2)CC1 (stereo not given)
Response line: < 10 nM

Prompt line: Request body: readout IC50, system Diacylglycerol O-acyltransferase 1 (Mus musculus, UniProt Q9Z2A7), query O=C(O)CC1CCC(c2ccc(-c3ccc4nc(C(=O)NCc5c(F)cccc5Cl)cn4c3)cc2)CC1 (stereo not given) . Return the value.
Response line: < 50 nM

Prompt line: Please provide the recorded IC50 for `O=C(O)C[C@H]1CC[C@H](c2ccc(-c3cn4cc(C(=O)NCc5c(Cl)cccc5Cl)nc4s3)cc2)CC1` , tested on Diacylglycerol O-acyltransferase 1 (Mus musculus, UniProt Q9Z2A7).
Response line: < 10 nM

###

Measured IC50, listed per entry.
Biological target: Diacylglycerol O-acyltransferase 1 (Mus musculus)
Assay: Inhibition Assay: Â Assay buffer [20 mM HEPES (pH 7.4), 100 mM MgCl2 and 0.04% bovine serum albumin (BSA)] containing 500 uM of enzyme substrate (didecanoyl glycerol) and 7.5 uM radiolabeled acyl-CoA substrate ([14C]decanoyl-CoA) was added to each well of a phospholipid-coated radiometric assay plate.

// solved cases for IC50 follow
O=C(O)CC1CCC(c2ccc(-c3ccc4nc(C(=O)NCc5c(F)cccc5F)cn4c3)cc2)CC1 (stereo not drawn)
< 75 nM
O=C(O)C[C@H]1CC[C@H](c2ccc(-c3cn4cc(C(=O)NCc5ccc(F)c(Cl)c5)nc4s3)cc2)CC1
< 25 nM
O=C(O)C[C@H]1CC[C@H](c2ccc(-c3cn4cc(C(=O)NCc5c(F)cc(Cl)cc5F)nc4s3)cc2)CC1
< 10 nM
O=C(O)C[C@H]1CC[C@H](c2ccc(-c3cn4cc(C(=O)NCc5c(F)cccc5F)nc4s3)cc2)CC1
< 25 nM
O=C(O)CC1CCC(c2ccc(-c3ccc4nc(C(=O)NCc5c(Cl)cccc5Cl)cn4c3)cc2)CC1 (stereo not drawn)
< 50 nM

Prompt line: Consider the compound `O=C(O)C[C@H]1CC[C@H](c2ccc(-c3cn4cc(C(=O)NCc5c(F)cccc5Cl)nc4s3)cc2)CC1` and give its measured IC50.
Response line: < 25 nM

Prompt line: IC50 for O=C(O)CC1CCC(c2ccc(-c3ccc4nc(C(=O)NC5(c6cc(F)ccc6F)CC5)cn4c3)cc2)CC1 (stereo not drawn) ?
Response line: < 10 nM

Prompt line: What IC50 value was documented for this compound, `O=C(O)C[C@H]1CC[C@H](c2ccc(-c3cn4cc(C(=O)NCc5ccc(OC(F)(F)F)c(Cl)c5)nc4s3)cc2)CC1` ?
Response line: < 200 nM
